System: Brain
Experiment: Metabolic stability in mouse brain homogenate assessed as first order rate constant of compound disappearance at 250 umol/mL by HPLC analysis
Type: ADME, tissue-based
quantityKind: Activity (×10⁻² /min)

Worked examples follow.
{"smilesRecord": "COc1ccc2cc([C@H](C)C(=O)OCC/C(SSCc3ccccc3)=C(\\C)N(C)C=O)ccc2c1", "Activity (×10⁻² /min)": 2.76}
{"smilesRecord": "COc1ccc2cc([C@H](C)C(=O)OCC/C(SSCc3ccccc3)=C(\\C)N(C=O)CC(=O)OC[C@H]3O[C@H](O)[C@H](O)[C@@H](O)[C@@H]3O)ccc2c1", "Activity (×10⁻² /min)": 3.71}

P = COc1ccc2cc([C@H](C)C(=O)OCC/C(SSC(C)C)=C(\C)N(C=O)CC(=O)OC[C@H]3O[C@H](O)[C@H](O)[C@@H](O)[C@@H]3O)ccc2c1
Q = COc1ccc2cc([C@H](C)C(=O)OC[C@H]3O[C@H](O)[C@H](O)[C@@H](O)[C@@H]3O)ccc2c1
Qu. Could you point out whether the larger Activity belongs to P or to Q ? State the label of the item chosen.
Ans. P
(P: 3.37 ×10⁻² /min, Q: 0.683 ×10⁻² /min)

###

Experiment: Chemical stability of the compound in phosphate buffer at pH 7.4 assessed as half life at 250 umol/mL by HPLC analysis
Format: physicochemical
quantityKind: half-life at 250 umol/mL (h)

Below, each entry is followed by its recorded half-life at 250 umol/mL result.
{"smilesRecord": "COc1ccc2cc([C@H](C)C(=O)OCC/C(SSCc3ccccc3)=C(\\C)N(C)C=O)ccc2c1", "readingUnit": "h", "half-life at 250 umol/mL": 62.4}
{"smilesRecord": "COc1ccc2cc([C@H](C)C(=O)OCC/C(SSCc3ccccc3)=C(\\C)N(C=O)CC(=O)OC[C@H]3O[C@H](O)[C@H](O)[C@@H](O)[C@@H]3O)ccc2c1", "readingUnit": "h", "half-life at 250 umol/mL": 30.1}
{"smilesRecord": "COc1ccc2cc([C@H](C)C(=O)OC[C@H]3O[C@H](O)[C@H](O)[C@@H](O)[C@@H]3O)ccc2c1", "readingUnit": "h", "half-life at 250 umol/mL": 114}

1 = CCSS/C(CCOC(=O)[C@@H](C)c1ccc2cc(OC)ccc2c1)=C(/C)N(C=O)CC(=O)OC[C@H]1O[C@H](O)[C@H](O)[C@@H](O)[C@@H]1O
2 = COc1ccc2cc([C@H](C)C(=O)OCC/C(SSC(C)C)=C(\C)N(C=O)CC(=O)OC[C@H]3O[C@H](O)[C@H](O)[C@@H](O)[C@@H]3O)ccc2c1
Qu. Please indicate which item has the smaller measured half-life at 250 umol/mL: 1 versus 2 Identify your selection by its label.
Ans. 1
(1: 27.2 h, 2: 51 h)

###

Experiment: Chemical stability of the compound in phosphate buffer at pH 7.4 assessed as first order rate constant of compound disappearance at 250 umol/mL by HPLC analysis
Assay type: physicochemical
quantityKind: Activity (×10⁻² /hr)

# annotated cases, reported Activity shown
{"smilesRecord": "COc1ccc2cc([C@H](C)C(=O)OCC/C(SSC(C)C)=C(\\C)N(C=O)CC(=O)OC[C@H]3O[C@H](O)[C@H](O)[C@@H](O)[C@@H]3O)ccc2c1", "Activity (×10⁻² /hr)": 1.36}
{"smilesRecord": "CCSS/C(CCOC(=O)[C@@H](C)c1ccc2cc(OC)ccc2c1)=C(/C)N(C=O)CC(=O)OC[C@H]1O[C@H](O)[C@H](O)[C@@H](O)[C@@H]1O", "Activity (×10⁻² /hr)": 2.55}
{"smilesRecord": "COc1ccc2cc([C@H](C)C(=O)OC[C@H]3O[C@H](O)[C@H](O)[C@@H](O)[C@@H]3O)ccc2c1", "Activity (×10⁻² /hr)": 0.607}

A = COc1ccc2cc([C@H](C)C(=O)OCC/C(SSCc3ccccc3)=C(\C)N(C)C=O)ccc2c1
B = COc1ccc2cc([C@H](C)C(=O)OCC/C(SSCc3ccccc3)=C(\C)N(C=O)CC(=O)OC[C@H]3O[C@H](O)[C@H](O)[C@@H](O)[C@@H]3O)ccc2c1
Qu. Hey, between A and B which has a smaller measured Activity? Answer with the label corresponding to your selection.
Ans. A
(A: 1.11 ×10⁻² /hr, B: 2.3 ×10⁻² /hr)

###

Experiment: Chemical stability of the compound in phosphate buffer at pH 5 assessed as half life at 250 umol/mL by HPLC analysis
Type: physicochemical
quantityKind: half-life at 250 umol/mL (h)

{"smilesRecord": "COc1ccc2cc([C@H](C)C(=O)OCC/C(SSCc3ccccc3)=C(\\C)N(C=O)CC(=O)OC[C@H]3O[C@H](O)[C@H](O)[C@@H](O)[C@@H]3O)ccc2c1", "half-life at 250 umol/mL, h": 24.1}
{"smilesRecord": "COc1ccc2cc([C@H](C)C(=O)OCC/C(SSC(C)C)=C(\\C)N(C=O)CC(=O)OC[C@H]3O[C@H](O)[C@H](O)[C@@H](O)[C@@H]3O)ccc2c1", "half-life at 250 umol/mL, h": 34}
{"smilesRecord": "CCSS/C(CCOC(=O)[C@@H](C)c1ccc2cc(OC)ccc2c1)=C(/C)N(C=O)CC(=O)OC[C@H]1O[C@H](O)[C@H](O)[C@@H](O)[C@@H]1O", "half-life at 250 umol/mL, h": 23.5}

A = COc1ccc2cc([C@H](C)C(=O)OC[C@H]3O[C@H](O)[C@H](O)[C@@H](O)[C@@H]3O)ccc2c1
B = COc1ccc2cc([C@H](C)C(=O)OCC/C(SSCc3ccccc3)=C(\C)N(C)C=O)ccc2c1
Qu. Could you kindly indicate whether A or B has the higher half-life at 250 umol/mL value? Response format: the label of the selected entry.
Ans. A

###

Test: Metabolic stability in mouse brain homogenate assessed as half life at 250 umol/mL by HPLC analysis
Format: ADME, tissue-based
quantityKind: half-life at 250 umol/mL (min)

{"smilesRecord": "COc1ccc2cc([C@H](C)C(=O)OCC/C(SSCc3ccccc3)=C(\\C)N(C)C=O)ccc2c1", "recordedResult": 25.1}
{"smilesRecord": "CCSS/C(CCOC(=O)[C@@H](C)c1ccc2cc(OC)ccc2c1)=C(/C)N(C=O)CC(=O)OC[C@H]1O[C@H](O)[C@H](O)[C@@H](O)[C@@H]1O", "recordedResult": 14.6}
{"smilesRecord": "COc1ccc2cc([C@H](C)C(=O)OCC/C(SSC(C)C)=C(\\C)N(C=O)CC(=O)OC[C@H]3O[C@H](O)[C@H](O)[C@@H](O)[C@@H]3O)ccc2c1", "recordedResult": 20.6}

1 = COc1ccc2cc([C@H](C)C(=O)OC[C@H]3O[C@H](O)[C@H](O)[C@@H](O)[C@@H]3O)ccc2c1
2 = COc1ccc2cc([C@H](C)C(=O)OCC/C(SSCc3ccccc3)=C(\C)N(C=O)CC(=O)OC[C@H]3O[C@H](O)[C@H](O)[C@@H](O)[C@@H]3O)ccc2c1
Qu. // returns 1 or 2 , whichever has the lower half-life at 250 umol/mL To answer, give the label that identifies your chosen option.
Ans. 2
(2: 18.7 min, 1: 101 min)

###

Assay: Metabolic stability in mouse plasma assessed as half life at 250 umol/mL by HPLC analysis
Type: ADME, cell-free
quantityKind: half-life at 250 umol/mL (min)

{"smilesRecord": "COc1ccc2cc([C@H](C)C(=O)OCC/C(SSCc3ccccc3)=C(\\C)N(C)C=O)ccc2c1", "recordedResult": 59.2}
{"smilesRecord": "COc1ccc2cc([C@H](C)C(=O)OCC/C(SSCc3ccccc3)=C(\\C)N(C=O)CC(=O)OC[C@H]3O[C@H](O)[C@H](O)[C@@H](O)[C@@H]3O)ccc2c1", "recordedResult": 45.3}

I = CCSS/C(CCOC(=O)[C@@H](C)c1ccc2cc(OC)ccc2c1)=C(/C)N(C=O)CC(=O)OC[C@H]1O[C@H](O)[C@H](O)[C@@H](O)[C@@H]1O
II = COc1ccc2cc([C@H](C)C(=O)OC[C@H]3O[C@H](O)[C@H](O)[C@@H](O)[C@@H]3O)ccc2c1
Qu. Identify the entry with the larger half-life at 250 umol/mL. Options: I and II Lab note: record the label of whichever item you select.
Ans. II

###

Assay: Chemical stability of the compound in phosphate buffer at pH 5 assessed as first order rate constant of compound disappearance at 250 umol/mL by HPLC analysis
Assay type: physicochemical
quantityKind: Activity (×10⁻² /hr)

{"smilesRecord": "CCSS/C(CCOC(=O)[C@@H](C)c1ccc2cc(OC)ccc2c1)=C(/C)N(C=O)CC(=O)OC[C@H]1O[C@H](O)[C@H](O)[C@@H](O)[C@@H]1O", "quantityKind": "Activity", "readingUnit": "×10⁻² /hr", "recordedResult": 2.95}
{"smilesRecord": "COc1ccc2cc([C@H](C)C(=O)OCC/C(SSC(C)C)=C(\\C)N(C=O)CC(=O)OC[C@H]3O[C@H](O)[C@H](O)[C@@H](O)[C@@H]3O)ccc2c1", "quantityKind": "Activity", "readingUnit": "×10⁻² /hr", "recordedResult": 2.04}

P = COc1ccc2cc([C@H](C)C(=O)OC[C@H]3O[C@H](O)[C@H](O)[C@@H](O)[C@@H]3O)ccc2c1
Q = COc1ccc2cc([C@H](C)C(=O)OCC/C(SSCc3ccccc3)=C(\C)N(C=O)CC(=O)OC[C@H]3O[C@H](O)[C@H](O)[C@@H](O)[C@@H]3O)ccc2c1
Qu. Select the item whose Activity value is smaller, choosing between P and Q . # respond with the chosen item's label
Ans. P
